target: UniProt Q9NPD5; assay: OATP1B3-mediated transport of substrate; type: in vitro ADME; settings: OATP1B3-transfected HEK293 cells
observed-property: Km (µM)
The reply should contain only the number, in µM.

Req: Requested field: Km. Item: CC(C)c1nc(N(C)S(C)(=O)=O)nc(-c2ccc(F)cc2)c1/C=C/[C@@H](O)C[C@@H](O)CC(=O)O [Rosuvastatin, rosuvastatin]
Resp: 28.3

* * *

Molecular target: OATP1B3 (Homo sapiens, UniProt Q9NPD5)
Sequence (Q9NPD5 1-702): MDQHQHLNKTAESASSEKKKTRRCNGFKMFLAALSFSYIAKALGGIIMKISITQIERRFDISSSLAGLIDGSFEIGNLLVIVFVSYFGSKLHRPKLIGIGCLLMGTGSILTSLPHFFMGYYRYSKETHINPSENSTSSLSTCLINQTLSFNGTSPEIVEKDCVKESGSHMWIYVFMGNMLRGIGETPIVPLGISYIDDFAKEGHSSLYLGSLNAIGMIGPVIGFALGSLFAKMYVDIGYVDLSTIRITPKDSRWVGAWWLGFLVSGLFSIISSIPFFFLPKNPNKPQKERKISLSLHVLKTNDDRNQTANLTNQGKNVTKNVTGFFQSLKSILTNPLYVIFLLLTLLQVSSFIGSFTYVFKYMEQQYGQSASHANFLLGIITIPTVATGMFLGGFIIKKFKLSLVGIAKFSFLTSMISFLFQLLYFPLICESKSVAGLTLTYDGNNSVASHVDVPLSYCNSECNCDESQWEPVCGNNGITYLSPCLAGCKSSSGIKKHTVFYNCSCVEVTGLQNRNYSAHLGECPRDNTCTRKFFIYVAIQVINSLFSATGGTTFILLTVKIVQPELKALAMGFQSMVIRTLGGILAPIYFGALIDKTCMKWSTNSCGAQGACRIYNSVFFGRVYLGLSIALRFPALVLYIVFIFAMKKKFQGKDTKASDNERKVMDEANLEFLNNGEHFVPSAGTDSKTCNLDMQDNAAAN
Assay: Static DDI risk assessment, OATP1B3 R-value
Settings: 1 + Iin,max,u/IC50; metabolite/combination additive; Imax,u for IV
observed-property: 1B3 R-Value
Simply state the number, no unit and no words.

Req: Requested field: 1B3 R-Value. Item: "CCCN(CCC)S(=O)(=O)c1ccc(C(=O)O)cc1"
Resp: 1.11

Req: Requested field: 1B3 R-Value. Item: "CC[C@H]1OC(=O)[C@H](C)[C@@H](O[C@H]2C[C@@](C)(OC)[C@@H](O)[C@H](C)O2)[C@H](C)[C@@H](O[C@@H]2O[C@H](C)C[C@H](N(C)C)[C@H]2O)[C@](C)(OC)C[C@@H](C)C(=O)[C@H](C)[C@@H](O)[C@]1(C)O"
Resp: 1.35

Req: Requested field: 1B3 R-Value. Item: CC(O)c1cc(C(=O)N[C@@H](C)Cn2ccc(-c3ccc(C#N)c(Cl)c3)n2)[nH]n1 (stereo partly shown) [Darolutamide]
Resp: 1.02

Okay, next one:
Req: Requested field: 1B3 R-Value. Item: "COC(=O)N[C@H](C(=O)N1CCC[C@H]1c1nc(-c2ccc(-c3ccc(-c4c[nH]c([C@@H]5CCCN5C(=O)[C@@H](NC(=O)OC)C(C)C)n4)cc3)cc2)c[nH]1)C(C)C"
Resp: 1.08
